# PROTOCOL_DETAILS: Selectivity index, ratio of IC50 for rat L6 cells to IC50 for Trypanosoma brucei rhodesiense STIB900
# Assay type: toxicity, cell-based
# CONDITION_SET: read-out: Ratio IC50
We label by threshold. Values of selectivity ratio strictly beneath 4 are 1 (yes). Values of 4 and up are 0 (no).

| SMILES | CLASS_LABEL |
| --- | --- |
| CN1/C(=C/C=C/c2sc3ccccc3[n+]2C)Sc2ccc(Cl)cc21 | 0 (no) |
| CN1/C(=C/C=C/c2sc3ccc(Cl)cc3[n+]2C)Sc2ccc(Cl)cc21 | 0 (no) |
| CN1/C(=C/C=C/C=C/c2sc3ccccc3[n+]2C)Sc2ccccc21 | 0 (no) |
| Cc1ccc2oc(/C=C/C=C3\Sc4ccc(F)cc4N3C)[n+](C)c2c1 | 0 (no) |
| Cc1ccc2oc(/C=C/C=C3\Oc4ccc(Cl)cc4N3C)[n+](C)c2c1 | 0 (no) |
| CN1/C(=C/C=C/c2oc3ccccc3[n+]2C)Oc2ccccc21 | 0 (no) |
| CN1/C(=C/C=C/C=C/c2sc3ccc(F)cc3[n+]2C)Sc2ccc(F)cc21 | 0 (no) |
| CCN1/C(=C/C=C/c2oc3ccc(C)cc3[n+]2C)Sc2ccc(F)cc21 | 1 (yes) |
| Cn1/c(=N\N/C=C/c2sc3ccc(F)cc3[n+]2C)sc2ccccc21 | 1 (yes) |
| Cc1ccc2c(c1)N(C)/C(=C/C=C/c1oc3ccc(C)cc3[n+]1C)O2 | 0 (no) |
| CN1/C(=C/C=C/C=C/c2sc3ccc(Cl)cc3[n+]2C)Sc2ccc(Cl)cc21 | 0 (no) |
| CN1/C(=C/C=C/c2oc3ccc(Cl)cc3[n+]2C)Sc2ccccc21 | 0 (no) |
| CN1/C(=C/C=C/c2oc3ccc(Cl)cc3[n+]2C)Oc2ccc(Cl)cc21 | 0 (no) |
| CN1/C(=C/C=C/c2sc3ccc(F)cc3[n+]2C)Sc2ccc(F)cc21 | 1 (yes) |
| CN1/C(=C/C=C/c2oc3ccccc3[n+]2C)Sc2ccc(F)cc21 | 1 (yes) |
| CCN1/C(=C/C=C/c2sc3ccccc3[n+]2C)Sc2ccc(F)cc21 | 1 (yes) |
| CCN1/C(=C/C=C/c2oc3ccccc3[n+]2C)Sc2ccc(F)cc21 | 1 (yes) |
| Cc1ccc2c(c1)N(C)/C(=C/C=C/c1oc3ccccc3[n+]1C)S2 | 1 (yes) |
| Cc1ccc2oc(/C=C/C=C3\Sc4ccccc4N3C)[n+](C)c2c1 | 1 (yes) |
| CN1/C(=C/C=C/c2sc3ccccc3[n+]2C)Sc2ccccc21 | 1 (yes) |
| CN1/C(=C/C=C/c2oc3ccccc3[n+]2C)Sc2ccccc21 | 0 (no) |
| CN1/C(=C/C=C/c2sc3ccccc3[n+]2C)Sc2ccc(F)cc21 | 1 (yes) |

---

# PROTOCOL_DETAILS: Selectivity index, ratio of IC50 for rat L6 cells to IC50 for Leishmania donovani MHOMET-67/L82
# Type: toxicity, cell-based
# CONDITION_SET: read-out: Ratio IC50
Label scheme for selectivity ratio: bottom range = under 10, center range = from 10 up to 40, top range = 40 and over

| SMILES | CLASS_LABEL |
| --- | --- |
| Cn1/c(=N/C=C/c2sc3ccc(Cl)cc3[n+]2C)sc2ccccc21 | top range |
| CN1/C(=C/C=C/c2sc3ccccc3[n+]2C)Sc2ccc(F)cc21 | bottom range |
| CCN1/C(=C/C=C/c2sc3ccc(F)cc3[n+]2CC)Sc2ccc(F)cc21 | center range |
| CCN1/C(=C/C=C/c2sc3ccccc3[n+]2C)Sc2ccc(F)cc21 | bottom range |
| CN1/C(=C/C=C/c2sc3ccccc3[n+]2C)Sc2ccc(Cl)cc21 | bottom range |
| Cn1/c(=N\N/C=C/c2sc3ccccc3[n+]2C)sc2ccccc21 | bottom range |
| CCN1/C(=C/C=C/c2oc3ccc(C)cc3[n+]2C)Sc2ccc(F)cc21 | top range |
| Cc1ccc2c(c1)N(C)/C(=C/C=C/c1oc3ccc(C)cc3[n+]1C)O2 | top range |
| CN1/C(=C/C=C/c2oc3ccc(Cl)cc3[n+]2C)Sc2ccc(Cl)cc21 | center range |
| Cc1ccc2c(c1)N(C)/C(=C/C=C/c1oc3ccc(C)cc3[n+]1C)S2 | bottom range |
| Cc1ccc2oc(/C=C/C=C3\Sc4ccccc4N3C)[n+](C)c2c1 | bottom range |
| Cn1/c(=N/C=C/c2sc3ccc(F)cc3[n+]2C)sc2ccccc21 | top range |
| CN1/C(=C/C=C/C=C/c2sc3ccc(F)cc3[n+]2C)Sc2ccc(F)cc21 | center range |
| CCN1/C(=C/C=C/c2oc3ccc(Cl)cc3[n+]2C)Sc2ccc(F)cc21 | center range |
| Cc1ccc2oc(/C=C/C=C3\Sc4ccc(F)cc4N3C)[n+](C)c2c1 | top range |
| CN1/C(=C/C=C/c2oc3ccc(Cl)cc3[n+]2C)Oc2ccc(Cl)cc21 | bottom range |
| Cc1ccc2oc(/C=C/C=C3\Sc4ccc(Cl)cc4N3C)[n+](C)c2c1 | center range |
| CN1/C(=C/C=C/c2oc3ccccc3[n+]2C)Oc2ccc(Cl)cc21 | center range |
| Cc1ccc2oc(/C=C/C=C3\Oc4ccc(Cl)cc4N3C)[n+](C)c2c1 | top range |
| Cn1/c(=N/C=C/c2sc3ccccc3[n+]2C)sc2ccccc21 | top range |
| CN1/C(=C/C=C/c2sc3ccc(F)cc3[n+]2C)Sc2ccc(F)cc21 | center range |
| CN1/C(=C/C=C/c2oc3ccccc3[n+]2C)Sc2ccc(F)cc21 | center range |
| CN1/C(=C/C=C/C=C/c2sc3ccccc3[n+]2C)Sc2ccccc21 | center range |
| CN1/C(=C/C=C/C=C/c2sc3ccc(Cl)cc3[n+]2C)Sc2ccc(Cl)cc21 | center range |
| CN1/C(=C/C=C/c2sc3ccccc3[n+]2C)Sc2ccccc21 | top range |
| Cn1/c(=N\N/C=C/c2sc3ccc(F)cc3[n+]2C)sc2ccccc21 | bottom range |
| CN1/C(=C/C=C/c2oc3ccccc3[n+]2C)Oc2ccccc21 | center range |
| CN1/C(=C/C=C/c2sc3ccc(Cl)cc3[n+]2C)Sc2ccc(Cl)cc21 | top range |
| Cc1ccc2c(c1)N(C)/C(=C/C=C/c1oc3ccccc3[n+]1C)O2 | top range |
| CN1/C(=C/C=C/c2oc3ccccc3[n+]2C)Sc2ccc(Cl)cc21 | center range |
| CN1/C(=C/C=C/c2oc3ccc(Cl)cc3[n+]2C)Sc2ccccc21 | top range |
| CCN1/C(=C/C=C/c2oc3ccccc3[n+]2C)Sc2ccc(F)cc21 | center range |
| CN1/C(=C/C=C/c2oc3ccccc3[n+]2C)Sc2ccccc21 | bottom range |
| Cn1/c(=N\N/C=C/c2sc3ccc(Cl)cc3[n+]2C)sc2ccccc21 | bottom range |
| Cc1ccc2c(c1)N(C)/C(=C/C=C/c1oc3ccccc3[n+]1C)S2 | center range |

---

Reported selectivity ratio values follow for various molecules
# PROTOCOL_DETAILS: Selectivity index, ratio of IC50 for rat L6 cells to IC50 for Trypanosoma brucei rhodesiense STIB900
# Assay type: toxicity, cell-based
# CONDITION_SET: read-out: Ratio IC50
MEASURED_PARAMETER: selectivity ratio

| SMILES | VALUE_REPORTED |
| --- | --- |
| Cn1/c(=N/C=C/c2sc3ccc(F)cc3[n+]2C)sc2ccccc21 | 15.8 |
| CCN1/C(=C/C=C/c2oc3ccc(Cl)cc3[n+]2C)Sc2ccc(F)cc21 | 3.6 |
| CCN1/C(=C/C=C/c2sc3ccc(F)cc3[n+]2CC)Sc2ccc(F)cc21 | 1.1 |

---

# PROTOCOL_DETAILS: Selectivity index, ratio of IC50 for rat L6 cells to IC50 for Trypanosoma brucei rhodesiense STIB900
# Type: toxicity, cell-based
# CONDITION_SET: read-out: Ratio IC50
Entry flag: Fulfilled if selectivity ratio reaches 9; Not fulfilled if it does not.

| SMILES | CLASS_LABEL |
| --- | --- |
| CN1/C(=C/C=C/c2oc3ccccc3[n+]2C)Oc2ccc(Cl)cc21 | Not fulfilled |
| Cc1ccc2c(c1)N(C)/C(=C/C=C/c1oc3ccc(C)cc3[n+]1C)S2 | Not fulfilled |
| CN1/C(=C/C=C/c2oc3ccccc3[n+]2C)Sc2ccc(Cl)cc21 | Not fulfilled |
| Cn1/c(=N/C=C/c2sc3ccc(Cl)cc3[n+]2C)sc2ccccc21 | Fulfilled |
| Cn1/c(=N\N/C=C/c2sc3ccc(Cl)cc3[n+]2C)sc2ccccc21 | Not fulfilled |
| Cc1ccc2c(c1)N(C)/C(=C/C=C/c1oc3ccccc3[n+]1C)O2 | Fulfilled |
| Cn1/c(=N\N/C=C/c2sc3ccccc3[n+]2C)sc2ccccc21 | Not fulfilled |
| Cc1ccc2oc(/C=C/C=C3\Sc4ccc(Cl)cc4N3C)[n+](C)c2c1 | Fulfilled |
| Cn1/c(=N/C=C/c2sc3ccccc3[n+]2C)sc2ccccc21 | Fulfilled |
| CN1/C(=C/C=C/c2oc3ccc(Cl)cc3[n+]2C)Sc2ccc(Cl)cc21 | Fulfilled |
